Assignment: determine reported TGI for the given molecules.
system: A549 NSCLC; assay: NCI tumour cell line growth inhibition, 48 h

Sample records with TGI:
> print(dat)
                                   molecule  target.under.test  measured.parameter    result
1  COc1cc2ncn(-c3cc(OCc4ccccc4C(F)(F)F)c(C(C)=O)s3)c2cc1OC         A549 NSCLC                 TGI   > 25 µM
2  C=C1C(=O)OC2CC3(C)CCCC(C)C3=CC12 (stereo not given)         A549 NSCLC                 TGI   26.8 µM
3       C=CCn1cnc2c(=O)[nH]c(Nc3ccccc3)nc21         A549 NSCLC                 TGI  > 100 µM
4  C[C@]12CC[C@@H]3c4ccc(OCCN5CCCC5)cc4CC[C@H]3[C@@H]1CCC2=O         A549 NSCLC                 TGI  > 100 µM

Please state TGI for every molecule in the list that follows.
1. CCOC(=O)c1cc(-c2ccc(OC)c(OC)c2)[nH]c1N/N=C/c1c(Cl)cccc1Cl
2. CC(=O)C1CCC2C3CC=C4CC(SC(=N)N)CCC4(C)C3CCC12C (stereo not given)
3. Cc1ccc(C)n1-n1c(-c2ccccc2)n[nH]c1=O
4. Cc1ccc(NC(=O)CC/C(CC(=O)C(C)(C)C)=N\Nc2ccc([N+](=O)[O-])cc2[N+](=O)[O-])cc1C
5. COC(=O)C(=O)C(C(=O)C=C(C)C)C(=O)C(=O)Nc1nc2ccc([N+](=O)[O-])cc2s1 (stereo not given)
6. CCc1nc2cc(/C=C/C(=O)NO)ccc2c(=O)n1CCc1ccc(F)cc1

["> 100 µM", "3.61 µM", "> 100 µM", "> 100 µM", "> 100 µM", "4.58 µM"]
